Biological target: P2Y14 receptor (Rattus norvegicus, UniProt O35881)
Sequence (O35881 1-305): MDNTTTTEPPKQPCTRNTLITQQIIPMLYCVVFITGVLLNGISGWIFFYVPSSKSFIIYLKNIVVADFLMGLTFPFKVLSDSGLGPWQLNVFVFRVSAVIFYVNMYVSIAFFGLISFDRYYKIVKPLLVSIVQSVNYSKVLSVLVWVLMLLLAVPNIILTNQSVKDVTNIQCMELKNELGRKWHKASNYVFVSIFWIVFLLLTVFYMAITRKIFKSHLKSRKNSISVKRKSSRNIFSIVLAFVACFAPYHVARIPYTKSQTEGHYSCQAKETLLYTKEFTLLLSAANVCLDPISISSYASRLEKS
Assay: agonist-stimulated […]GTPγS binding to RBL-2H3 membranes
outcome.measure: EC50 (nM)
Give bare numbers, in nM.

Query string: // EC50 lookup, key: O=c1ccn([C@@H]2O[C@H](COP(=O)(O)OP(=O)(O)O[C@H]3O[C@H](CO)[C@@H](O)[C@H](O)[C@H]3O)[C@@H](O)[C@H]2O)c(=S)[nH]1 [MRS2690]
Result string: 8.1

The reported measurements were obtained from paper PMC2812605.
